System: SW480
Assay: Antiproliferative activity against human SW480 cells after 24 hrs by MTT assay
Format: functional, cell-based
Details: SW480, 24 h
pIC50: −log10 of the molar value.
outcome_measure: pIC50

[[record]]
compound = "CC(C)=CCC/C(C)=C/CC/C(C)=C/COc1cc2oc(-c3ccccc3)cc(=O)c2c(O)c1O"
result_comparator = "<"
value_measured = 4.70

[[record]]
compound = "O=c1cc(-c2ccccc2)oc2cc(O)c(O)c(O)c12 [BAICALEIN]"
result_comparator = "="
value_measured = 4.77


* * *

Assay: Cytotoxicity against mouse BNL-CL2 cells after 48 hrs by MTT assay
Assay type: cell-based
Conditions: BNL CL.2, 48 h
pIC50: −log10 of the molar value.
outcome_measure: pIC50

[[record]]
mol = "CC(C)=CCC/C(C)=C/COc1cc(O)c2c(=O)cc(-c3ccccc3)oc2c1"
value_measured = "< 4.70"

[[record]]
mol = "CCCCOc1cc2oc(-c3ccccc3)cc(=O)c2c(O)c1O"
value_measured = "< 4.70"

[[record]]
mol = "O=c1cc(-c2ccccc2)oc2cc(O)cc(O)c12"
value_measured = "< 4.40"

[[record]]
mol = "CC(C)=CCC/C(C)=C/CC/C(C)=C/COc1cc2oc(-c3ccccc3)cc(=O)c2c(O)c1O"
value_measured = "< 4.70"

[[record]]
mol = "CC(C)=CCOc1cc2oc(-c3ccccc3)cc(=O)c2c(O)c1O"
value_measured = "< 4.70"

[[record]]
mol = "CC(C)=CCC/C(C)=C/CC/C(C)=C/COc1cc(O)c2c(=O)cc(-c3ccccc3)oc2c1"
value_measured = "< 4.70"

[[record]]
mol = "COc1cc(O)c2c(=O)cc(-c3ccccc3)oc2c1"
value_measured = "< 4.70"

[[record]]
mol = "COc1c(O)cc(O)c2c(=O)cc(-c3ccccc3)oc12"
value_measured = "< 4.40"

[[record]]
mol = "COc1cc2oc(-c3ccccc3)cc(=O)c2c(O)c1O"
value_measured = "< 4.40"

[[record]]
mol = "O=c1cc(-c2ccccc2)oc2cc(O)c(O)c(O)c12"
value_measured = "< 4.40"

[[record]]
mol = "CC(C)=CCC/C(C)=C/COc1cc2oc(-c3ccccc3)cc(=O)c2c(O)c1O"
value_measured = "< 4.70"

